# Target Of Assay: human CA-IX (Homo sapiens)
# Construct: purchased Acro CA9-H82E3
# Protocol Text: Surface Plasmon Resonance (SPR) binding kinetics to recombinant human CA-IX (Biacore 8K, single-cycle kinetics, 1:1 binding model)
# Condition Context: Chelated Metal: Lu-175; SPR, 25° C., pH 7.4; read-out: CAIX KD
Please respond with reported Kd for every item in the list.

Form: compound = "NS(=O)(=O)c1nnc(NC(=O)C23CC(c4cn(CCNC(=O)[C@@H]5CN(C(=O)CN6CCN(CC(=O)O)CCN(CC(=O)O)CCN(CC(=O)O)CC6)CCN5C(=O)CNC(=O)C5(C(=O)O)CCN(C(=O)Cc6n[nH]c7ccc(F)cc67)CC5)nn4)(C2)C3)s1.[Lu+3]" ; Kd = 1 to 2.5 nM

Form: compound = "CC(CCC(=O)N[C@@H](CC(=O)N[C@@H](CC(=O)N1CCN(C(=O)CN2CCN(CC(=O)O)CCN(CC(=O)O)CCN(CC(=O)O)CC2)C[C@H]1C(=O)NCCn1nnc(C(=O)O)c1C12CC(C(=O)Nc3nnc(S(N)(=O)=O)s3)(C1)C2)C(=O)O)C(=O)O)(c1ccc(O)cc1)c1ccc(O)cc1.[Lu+3]" ; Kd = 1 to 2.5 nM

* * *

# Target Of Assay: human CA-XII (Homo sapiens, UniProt O43570)
# Construct: purchased Creative BioMart CA12-261H
# Sequence (O43570 25-354): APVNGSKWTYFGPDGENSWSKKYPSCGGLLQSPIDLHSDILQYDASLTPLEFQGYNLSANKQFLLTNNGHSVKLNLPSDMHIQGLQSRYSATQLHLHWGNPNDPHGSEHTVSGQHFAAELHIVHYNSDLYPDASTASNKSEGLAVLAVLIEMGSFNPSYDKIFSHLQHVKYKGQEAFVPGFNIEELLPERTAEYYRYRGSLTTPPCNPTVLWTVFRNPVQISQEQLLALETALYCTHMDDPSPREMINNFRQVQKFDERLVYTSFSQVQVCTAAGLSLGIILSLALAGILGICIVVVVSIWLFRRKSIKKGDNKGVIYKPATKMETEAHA
# Protocol Text: Surface Plasmon Resonance (SPR) binding kinetics to recombinant human CA-XII (Biacore 8K, single-cycle kinetics, 1:1 binding model)
# Condition Context: Chelated Metal: Lu-175, 25° C., pH 7.4, read-out: CAXII KD
# Protocol: G1. Surface Plasmon Resonance Assay Conditions for hCA-IX and hCA-XII Surface Plasmon Resonance (SPR) experiments were conducted on a Biacore 8K instrument (Cytiva, Marlborough, MA) to determine the binding kinetics of the compound to recombinant human CA-IX (Acro, CA9-H82E3) and CA-XII (Creative BioMart, CA12-261H) proteins. […]
Endpoint Label: Kd

Form: compound = CC(CCCC(=O)N1CCC(C(N)=O)(C(=O)NCC(=O)N2CCN(C(=O)CN3CCN(C(=O)CN4CCN(CC(=O)O)CCN(CC(=O)O)CCN(CC(=O)O)CC4)CC3)C[C@@H]2C(=O)NCCn2cc(C34CC(C(=O)Nc5nnc(S(N)(=O)=O)s5)(C3)C4)nn2)CC1)(c1ccc(O)cc1)c1ccc(O)cc1.[Lu+3] [Compound 129.3] ; Kd = > 10 nM

Form: compound = CC(CCCC(=O)N1CCC(C(N)=O)(C(=O)NCC(=O)N2CCN(C(=O)CN3CCN(CC(=O)O)CCN(CC(=O)O)CCN(CC(=O)O)CC3)C[C@@H]2C(=O)NCCn2nnc(C34CC(C(=O)Nc5nnc(S(N)(=O)=O)s5)(C3)C4)c2C(=O)O)CC1)(c1ccc(O)cc1)c1ccc(O)cc1.[Lu+3] [Compound 107.59] ; Kd = > 10 nM

* * *

Please respond with reported Kd for every item in the list.
# Target Of Assay: human CA-XII (Homo sapiens)
# Construct: purchased Creative BioMart CA12-261H
# Protocol Text: Surface Plasmon Resonance (SPR) binding kinetics to recombinant human CA-XII (Biacore 8K, single-cycle kinetics, 1:1 binding model)
# Condition Context: Chelated Metal: Lu-175, 25° C., pH 7.4, read-out: CAXII KD

Form: compound = NS(=O)(=O)c1nnc(NC(=O)C23CC(c4cn(CCNC(=O)[C@@H]5CN(C(=O)CN6CCN(CC(=O)O)CCN(CC(=O)O)CCN(CC(=O)O)CC6)CCN5C(=O)C[C@H](NC(=O)C[C@H](NC(=O)c5ccc(C6CC6)cc5)C(=O)O)C(=O)O)nn4)(C2)C3)s1.[Lu+3] [Compound 109.1] ; Kd = 2.5 to 10 nM

Form: compound = CC(CCCC(=O)N1CCC(C(=O)O)(C(=O)NCC(=O)N2CCN(C(=O)CN3CCN(CC(=O)O)CCN(CC(=O)O)CCN(CC(=O)O)CC3)C[C@@H]2C(=O)NCCn2cc(C34CC(C(=O)Nc5nnc(S(N)(=O)=O)s5)(C3)C4)nn2)CC1)(c1ccc(O)cc1)c1ccc(O)cc1.[Lu+3] [Compound 107.6] ; Kd = > 10 nM

Form: compound = CC(CCCC(=O)N1CCC(C(N)=O)(C(=O)NCC(=O)NC2(C(=O)NCCn3cc(C45CCC(C(=O)Nc6nnc(S(N)(=O)=O)s6)(CC4)CC5)nn3)CCN(C(=O)CN3CCN(CC(=O)O)CCN(CC(=O)O)CCN(CC(=O)O)CC3)CC2)CC1)(c1ccc(O)cc1)c1ccc(O)cc1.[Lu+3] [Compound 117.6] ; Kd = 1 to 2.5 nM

Form: compound = CC(CCCC(=O)N1CCC(C(=O)O)(C(=O)NCC(=O)N2CCN(C(=O)CN3CCN(CC(=O)O)CCN(CC(=O)O)CCN(CC(=O)O)CC3)C[C@H]2C(=O)NCCn2cc(C34CC(C(=O)Nc5nnc(S(N)(=O)=O)s5)(C3)C4)nn2)CC1)(c1ccc(O)cc1)c1ccc(O)cc1.[Lu+3] [Compound 112.18] ; Kd = > 10 nM

* * *

Please respond with reported Kd for every item in the list.
# Target Of Assay: human CA-XII (Homo sapiens, UniProt O43570)
# Construct: purchased Creative BioMart CA12-261H
# Protocol Text: Surface Plasmon Resonance (SPR) binding kinetics to recombinant human CA-XII (Biacore 8K, single-cycle kinetics, 1:1 binding model)
# Condition Context: Chelated Metal: Lu-175, 25° C., pH 7.4, read-out: CAXII KD

Form: compound = "NCCNC(=O)c1cnc(N[C@@H](CC(=O)N2CCN(C(=O)CN3CCN(CC(=O)O)CCN(CC(=O)O)CCN(CC(=O)O)CC3)C[C@H]2C(=O)NCCn2cc(C34CC(C(=O)Nc5nnc(S(N)(=O)=O)s5)(C3)C4)nn2)C(=O)O)nc1.[Lu+3]" ; Kd = > 10 nM

Form: compound = "CC(CCCC(=O)N1CCC(C(N)=O)(C(=O)NCC(=O)NC2(C(=O)NCCn3cc(C45CC(C(=O)Nc6nnc(S(N)(=O)=O)s6)(C4)C5)nn3)CCN(C(=O)CCOCCOCCOCCOCCOCCOCCOCCOCCNC(=O)CN3CCN(CC(=O)O)CCN(CC(=O)O)CCN(CC(=O)O)CC3)CC2)CC1)(c1ccc(O)cc1)c1ccc(O)cc1.[Lu+3]" ; Kd = > 10 nM

Form: compound = "CC(CCC(=O)N[C@@H](CC(=O)N[C@@H](CC(=O)N[C@@H](CCCCn1cc(C23CCC(C(=O)Nc4nnc(S(N)(=O)=O)s4)(CC2)CC3)nn1)C(=O)NCCOCCOCCNC(=O)CN1CCN(CC(=O)O)CCN(CC(=O)O)CCN(CC(=O)O)CC1)C(=O)O)C(=O)O)(c1ccc(O)cc1)c1ccc(O)cc1.[Lu+3]" ; Kd = 1 to 2.5 nM

Form: compound = "NS(=O)(=O)c1nnc(NC(=O)C23CC(c4cn(CCNC(=O)[C@@H]5CN(C(=O)CN6CCN(CC(=O)O)CCN(CC(=O)O)CCN(CC(=O)O)CC6)CCN5C(=O)C[C@H](Nc5ncc(C(=O)N6CCC(c7ccc(O)cc7)(c7ccc(O)cc7)CC6)cn5)C(=O)O)nn4)(C2)C3)s1.[Lu+3]" ; Kd = > 10 nM

Form: compound = "NS(=O)(=O)c1nnc(NC(=O)C23CC(c4cn(CCCC[C@@H](C(=O)NCCOCCOCCNC(=O)CN5CCN(CC(=O)O)CCN(CC(=O)O)CCN(CC(=O)O)CC5)n5cc(C[C@H](NC(=O)C[C@H](NC(=O)c6n[nH]c7ccccc67)C(=O)O)C(=O)O)nn5)nn4)(C2)C3)s1.[Lu+3]" ; Kd = 2.5 to 10 nM

Form: compound = "CC(CC(=O)N[C@@H](CC(=O)N[C@@H](CC(=O)N[C@@H](CCCCn1cc(C23CCC(C(=O)Nc4nnc(S(N)(=O)=O)s4)(CC2)C3)nn1)C(=O)NCCOCCOCCNC(=O)CN1CCN(CC(=O)O)CCN(CC(=O)O)CCN(CC(=O)O)CC1)C(=O)O)C(=O)O)(c1ccc(O)cc1)c1ccc(O)cc1.[Lu+3]" ; Kd = < 1 nM

Form: compound = "CC(CCC(=O)N[C@@H](CC(=O)N[C@@H](CC(=O)N[C@@H](CCCCn1cc(C23CCC(C(=O)Nc4nnc(S(N)(=O)=O)s4)(CC2)C3)nn1)C(=O)N1CCC(NC(=O)CN2CCN(CC(=O)O)CCN(CC(=O)O)CCN(CC(=O)O)CC2)CC1)C(=O)O)C(=O)O)(c1ccc(O)cc1)c1ccc(O)cc1.[Lu+3]" ; Kd = < 1 nM

Form: compound = "CC(CCC(=O)N[C@@H](CC(=O)N[C@@H](CC(=O)N[C@@H](CCCCn1cc(C23CCC(C(=O)Nc4nnc(S(N)(=O)=O)s4)(CC2)C3)nn1)C(=O)NCCOCCOCCNC(=O)CN1CCN(CC(=O)O)CCN(CC(=O)O)CCN(CC(=O)O)CC1)C(=O)O)C(=O)O)(c1ccc(O)cc1)c1ccc(O)cc1.[Lu+3]" ; Kd = 1 to 2.5 nM

Form: compound = "N[C@@H](CC(=O)N[C@@H](CC(=O)N1CCN(C(=O)CN2CCN(CC(=O)O)CCN(CC(=O)O)CCN(CC(=O)O)CC2)C[C@H]1C(=O)NCCn1cc(C23CC(C(=O)Nc4nnc(S(N)(=O)=O)s4)(C2)C3)nn1)C(=O)O)C(=O)O.[Lu+3]" ; Kd = 2.5 to 10 nM

Form: compound = "NS(=O)(=O)c1nnc(NC(=O)C23CC(c4cn(CCNC(=O)[C@@H]5CN(C(=O)CN6CCN(CC(=O)O)CCN(CC(=O)O)CCN(CC(=O)O)CC6)CCN5C(=O)C[C@H](NC(=O)C[C@H](NC(=O)c5ccc(C6CC6)nc5)C(=O)O)C(=O)O)nn4)(C2)C3)s1.[Lu+3]" ; Kd = 2.5 to 10 nM

Form: compound = "NS(=O)(=O)c1nnc(NC(=O)C23CC(c4cn(CCNC(=O)[C@H]5CN(C(=O)CN6CCN(CC(=O)O)CCN(CC(=O)O)CCN(CC(=O)O)CC6)CCN5C(=O)[C@@H]5COCCN5C(=O)CCc5n[nH]c6ccccc56)nn4)(C2)C3)s1.[Lu+3]" ; Kd = > 10 nM

Form: compound = CC(CCC(=O)N[C@@H](CC(=O)N[C@@H](CC(=O)N[C@@H](CCCn1cc(C2CCC(C(=O)Nc3nnc(S(N)(=O)=O)s3)CC2)nn1)C(=O)NCCOCCOCCNC(=O)CN1CCN(CC(=O)O)CCN(CC(=O)O)CCN(CC(=O)O)CC1)C(=O)O)C(=O)O)(c1ccc(O)cc1)c1ccc(O)cc1.[Lu+3] (stereo partly shown) ; Kd = 2.5 to 10 nM

Form: compound = "CC(CCC(=O)N[C@@H](CC(=O)N[C@@H](CC(=O)N1CCN(C(=O)CN2CCN(CC(=O)O)CCN(CC(=O)O)CCN(CC(=O)O)CC2)C[C@H]1C(=O)NCCn1cc(C23CC(C(=O)Nc4nnc(S(N)(=O)=O)s4)(C2)C3)nn1)C(=O)O)C(=O)O)(c1ccc(O)cc1)c1ccc(O)cc1.[Lu+3]" ; Kd = > 10 nM

The origin of these recorded values is patent US20260325685A1.
